Data provenance is patent US20230002496A1.

Target: T1, human GM-CSFRα, full length on cells (human, UniProt P15509 23-400)
T1 sequence: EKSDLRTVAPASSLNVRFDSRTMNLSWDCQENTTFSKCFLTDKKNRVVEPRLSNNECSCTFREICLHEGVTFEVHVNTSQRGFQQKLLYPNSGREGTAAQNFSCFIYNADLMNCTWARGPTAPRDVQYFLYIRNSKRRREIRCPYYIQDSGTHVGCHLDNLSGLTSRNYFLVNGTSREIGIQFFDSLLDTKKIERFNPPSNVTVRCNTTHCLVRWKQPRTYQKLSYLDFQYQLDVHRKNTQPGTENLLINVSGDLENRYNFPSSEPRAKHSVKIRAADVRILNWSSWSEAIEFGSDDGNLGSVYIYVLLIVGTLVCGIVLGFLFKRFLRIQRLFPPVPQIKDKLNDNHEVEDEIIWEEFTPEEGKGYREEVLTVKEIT
Experiment: cell-based or functional assay
Kindly state IC50, TF-1 cell proliferation for each of the entries shown.
Answers are plain numbers, in µg/mL.

Guide cases for IC50, TF-1 cell proliferation, answers given:
E35-scFv LS52W (scFv, V domains shown) VH: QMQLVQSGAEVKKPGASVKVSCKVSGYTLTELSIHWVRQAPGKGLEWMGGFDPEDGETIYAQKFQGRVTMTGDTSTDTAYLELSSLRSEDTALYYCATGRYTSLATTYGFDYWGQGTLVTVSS VL: EIVMTQSPATLSLSPGERATLSCRASQSVSSYLAWYQQKPGQAPRLLIYGAWSRATGIPDRFSGSGSGTDFTLTISRLEPEDFAVYYCQQYDNWPYTFGQGTKLEIK	0.073
E35-scFv LY32R (scFv, V domains shown) VH: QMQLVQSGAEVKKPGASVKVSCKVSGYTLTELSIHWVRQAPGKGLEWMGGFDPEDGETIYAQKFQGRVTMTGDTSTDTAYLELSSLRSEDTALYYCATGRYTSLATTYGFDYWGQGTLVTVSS VL: EIVMTQSPATLSLSPGERATLSCRASQSVSSRLAWYQQKPGQAPRLLIYGASSRATGIPDRFSGSGSGTDFTLTISRLEPEDFAVYYCQQYDNWPYTFGQGTKLEIK	3.12

For each of the binders below, note its IC50, TF-1 cell proliferation.
1. E35-scFv LS31D (scFv, V domains shown) VH: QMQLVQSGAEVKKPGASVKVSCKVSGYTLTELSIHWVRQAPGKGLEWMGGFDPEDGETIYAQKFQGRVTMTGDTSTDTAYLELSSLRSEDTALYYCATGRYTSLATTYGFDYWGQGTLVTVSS VL: EIVMTQSPATLSLSPGERATLSCRASQSVSDYLAWYQQKPGQAPRLLIYGASSRATGIPDRFSGSGSGTDFTLTISRLEPEDFAVYYCQQYDNWPYTFGQGTKLEIK
2. E35-scFv LA51S (scFv, V domains shown) VH: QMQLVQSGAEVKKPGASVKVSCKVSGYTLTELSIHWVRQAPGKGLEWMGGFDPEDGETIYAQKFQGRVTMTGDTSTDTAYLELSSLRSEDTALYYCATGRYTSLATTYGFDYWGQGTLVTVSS VL: EIVMTQSPATLSLSPGERATLSCRASQSVSSYLAWYQQKPGQAPRLLIYGSSSRATGIPDRFSGSGSGTDFTLTISRLEPEDFAVYYCQQYDNWPYTFGQGTKLEIK
3. E35-scFv LS30A (scFv, V domains shown) VH: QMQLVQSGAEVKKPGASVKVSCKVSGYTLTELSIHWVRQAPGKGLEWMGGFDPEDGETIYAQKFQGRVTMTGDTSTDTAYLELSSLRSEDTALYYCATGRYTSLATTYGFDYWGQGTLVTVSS VL: EIVMTQSPATLSLSPGERATLSCRASQSVASYLAWYQQKPGQAPRLLIYGASSRATGIPDRFSGSGSGTDFTLTISRLEPEDFAVYYCQQYDNWPYTFGQGTKLEIK

Solution:
1.34
0.18
0.078
